The following compounds were reported with pIC50 values on MAPK1(ERK2) enzyme (Homo sapiens) in different studies.
pIC50: −log10 of the molar value.
measure: pIC50

Example entries and their recorded answers appear below.
CC[C@H](Nc1nc(NCc2cccnc2)c2ncn(C(C)C)c2n1)C(O)C(C)C (mixture of isomers) :: 4.17
Cc1cnc(Nc2ccnn2C)nc1-c1cn2c(n1)C(=O)N(Cc1cccc(Cl)c1)CC2 :: 9.52
O=C(NCCCCc1ccccc1)Nc1ccc2ncc(N3CCCC3)nc2n1 :: 8.30
C=CCNC(=S)Nc1ccc2ncc(-c3ccc(O)cc3)nc2n1 :: 6.41
COc1ccc(-c2n[nH]c3cc4[nH]c(C(=O)N[C@H](C)c5ccccc5)nc4cc23)cc1 :: 8.66
Cn1nccc1Nc1nccc(-c2cc3n(c2)C(=O)N([C@H](CO)c2cccc(Cl)c2)C3)n1 :: 8.15
Cc1cccc([C@@H](CO)NC(=O)c2nc3cc4c(-c5ccncc5)n[nH]c4cc3[nH]2)c1 :: 9.92
CCNC(=O)Nc1ccc2ncc(Nc3cc(C(=O)O)cc(C(F)(F)F)c3)nc2n1 :: 4.69

a. Cc1cnccc1-c1cnc(N)c(-c2ccc(C(=O)N[C@H](CO)c3ccccc3)c(F)c2)c1
b. C[C@@H](NC(=O)c1cc2cc3c(-c4ccncc4)n[nH]c3cc2[nH]1)c1ccccc1
Endpoint returns the identifier whose pIC50 is numerically larger, either a or b . Choose, then provide that item's label.
b

====

The following compounds were reported with pIC50 values on MAPK1(ERK2) enzyme (Homo sapiens) in different studies.
pIC50: −log10 of the molar value.
measure: pIC50

Example entries and their recorded answers appear below.
Nc1ncc(C2CCOCC2)nc1-c1ccc(C(=O)N[C@H](CO)c2ccccc2)cc1 :: 8.97
Cc1cnc(Nc2ccnn2C)nc1-c1cn2c(n1)C(=O)N(Cc1cc(F)cc(F)c1)[C@@H](C)C2 :: 9.10
O=C(N[C@H](CNCC(F)F)c1ccccc1)c1nc2cc3c(-c4ccncc4)n[nH]c3cc2[nH]1 :: 9.06

1. CC[C@@H](Nc1nc(NCc2cccnc2)c2ncn(C(C)C)c2n1)C(C)(C)O
2. N#C[C@@H](NC(=O)c1nc2cc3c(-c4ccncc4)n[nH]c3cc2[nH]1)c1ccccc1
3. CCNC(=O)Nc1ccc2ncc(Nc3ccc(C)cn3)nc2n1
4. COC[C@H]1Cn2cc(-c3nc(Nc4ccnn4C)ncc3C)nc2C(=O)N1Cc1cccc(C(F)(F)F)n1
Sort low-to-high on pIC50, please. Show the ranking through the labels, in the order asked for.
1, 3, 4, 2

====

The following compounds were reported with pIC50 values on MAPK1(ERK2) enzyme (Homo sapiens) in different studies.
pIC50: −log10 of the molar value.
measure: pIC50

COc1cc(F)cc([C@@H](CO)NC(=O)[C@@H](C)N2CCc3sc(-c4nc(Nc5ccnn5C)ncc4Cl)cc3C2=O)c1 :: 8.22
CC[C@@H](Nc1nc(NCc2cccnc2)c2ncn(C(C)C)c2n1)C(O)C(C)C (mixture of isomers) :: 3.95

A. COc1cc(CN2C(=O)c3nc(-c4nc(Nc5ccnn5C)ncc4C)cn3C[C@@H]2C)ccc1F
B. Cn1nccc1Nc1nccc(-c2nc3c(s2)C2(COC2)N(Cc2cccc(F)c2)C3=O)n1
Endpoint returns the identifier whose pIC50 is numerically larger, either A or B . Choose, then provide that item's label.
A
